- tested.target: C-C chemokine receptor type 2 (Homo sapiens, UniProt P41597, E291A)
- Sequence (P41597 whole entry E291A): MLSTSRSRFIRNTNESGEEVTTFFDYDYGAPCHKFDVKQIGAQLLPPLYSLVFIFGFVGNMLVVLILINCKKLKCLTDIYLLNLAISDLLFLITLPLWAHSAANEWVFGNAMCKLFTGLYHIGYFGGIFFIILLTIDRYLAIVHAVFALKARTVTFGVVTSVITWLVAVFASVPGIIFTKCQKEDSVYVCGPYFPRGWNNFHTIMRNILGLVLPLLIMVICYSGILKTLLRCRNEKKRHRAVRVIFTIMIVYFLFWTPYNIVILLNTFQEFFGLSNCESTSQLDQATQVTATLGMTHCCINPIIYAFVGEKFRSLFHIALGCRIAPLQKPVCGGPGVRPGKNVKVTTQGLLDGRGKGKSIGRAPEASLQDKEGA
- assay.details: Binding affinity to CCR2 E291A mutant
pIC50: −log10 of the molar value.
measurement.name: pIC50

{"columns": ["compound", "observed.result"],
 "data": [
  ["CSc1ccc(C(=O)NC2CCNCC2NC(=O)CNC(=O)c2cc(C(F)(F)F)ccc2N)cc1 (racemic)", 6.42],
  ["CSc1ccc(CNC2CCNCC2NC(=O)CNC(=O)c2cc(C(F)(F)F)ccc2N)cc1 (racemic)", 6.13]
]}

====

- tested.target: C-C chemokine receptor type 3 (Homo sapiens) (UniProt P51677)
- assay.details: Inhibition of CCR3 at 10 uM
measurement.name: inhibition

{"columns": ["compound", "observed.result"],
 "data": [
  ["CCCCN1CCC(NCc2ccc(SC)cc2)C(NC(=O)CNC(=O)c2cc(C(F)(F)F)ccc2N)C1 (racemic)", "75%"],
  ["CSc1ccc(CNC2CCNCC2NC(=O)CNC(=O)c2cc(C(F)(F)F)ccc2N)cc1 (racemic)", "47.3%"],
  ["CCCN1CCC(NCc2ccc(SC)cc2)C(NC(=O)CNC(=O)c2cc(C(F)(F)F)ccc2NC(=O)NC)C1 (racemic)", "5.5%"],
  ["CCCN1CCC(NCc2ccc(SC)cc2)C(NC(=O)CNC(=O)c2cc(C(F)(F)F)ccc2N)C1 (racemic)", "47%"],
  ["CSc1ccc(CNC2CCNCC2NC(=O)CNC(=O)c2cccc(C(F)(F)F)c2)cc1 (racemic)", "46%"],
  ["CCCCN1CCC(NC(=O)c2ccc(SC)cc2)C(NC(=O)CNC(=O)c2cc(C(F)(F)F)ccc2N)C1 (racemic)", "77%"],
  ["CSc1ccc(CNC2CCN(C)CC2NC(=O)CNC(=O)c2cc(C(F)(F)F)ccc2N)cc1 (racemic)", "56%"],
  ["Nc1ccc(C(F)(F)F)cc1C(=O)NCC(=O)NC1CNCCC1NCc1ccc(Cl)cc1 (racemic)", "90%"]
]}

====

- tested.target: C-C chemokine receptor type 2 (Homo sapiens, UniProt P41597)
- Sequence (P41597 whole entry): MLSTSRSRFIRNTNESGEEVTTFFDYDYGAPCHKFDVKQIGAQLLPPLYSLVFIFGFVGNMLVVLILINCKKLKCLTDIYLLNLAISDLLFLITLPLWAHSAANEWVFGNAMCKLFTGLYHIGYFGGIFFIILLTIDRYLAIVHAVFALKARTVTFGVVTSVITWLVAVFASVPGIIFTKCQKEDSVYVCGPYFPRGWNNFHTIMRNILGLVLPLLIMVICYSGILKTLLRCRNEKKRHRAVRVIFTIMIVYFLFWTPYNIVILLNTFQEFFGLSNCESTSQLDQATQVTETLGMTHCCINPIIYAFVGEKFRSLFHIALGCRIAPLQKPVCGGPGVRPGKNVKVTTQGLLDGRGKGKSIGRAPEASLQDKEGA
- assay.details: Antagonist activity at CCR2 in human PBMC assessed as MCP1-induced calcium flux by fluorescence-imaging plate assay
- Assay type: functional
We label by threshold. Values of IC50 strictly beneath 10 nM are 1. Values of 10 nM and up are -1.

{"columns": ["compound", "class.label"],
 "data": [
  ["CSc1ccc(CNC2CCN(C)CC2NC(=O)CNC(=O)c2cc(C(F)(F)F)ccc2N)cc1 (racemic)", 1],
  ["CSc1ccc(CNC2CCNCC2NC(=O)CNC(=O)c2cc(C(F)(F)F)ccc2N)cc1 (racemic)", 1],
  ["CCCN1CCC(NC(=O)c2ccc(SC)cc2)C(NC(=O)CNC(=O)c2cc(N)cc(C(F)(F)F)c2)C1 (racemic)", 1],
  ["CCCN1CCC(NCc2ccc(SC)cc2)C(NC(=O)CNC(=O)c2cc(C(F)(F)F)ccc2NC(=O)N2CCCC2)C1 (racemic)", -1],
  ["CCCN1CCC(NCc2ccc(SC)cc2)C(NC(=O)CNC(=O)c2cc(N)cc(C(F)(F)F)c2)C1 (racemic)", 1],
  ["CCCCN1CCC(NCc2ccc(SC)cc2)C(NC(=O)CNC(=O)c2cc(C(F)(F)F)ccc2N)C1 (racemic)", -1],
  ["CSc1ccc(C(=O)NC2CCN(C)CC2NC(=O)CNC(=O)c2cc(C(F)(F)F)ccc2N)cc1 (racemic)", 1],
  ["Nc1ccc(C(F)(F)F)cc1C(=O)NCC(=O)NC1CNCCC1NCc1ccc(Cl)cc1 (racemic)", -1],
  ["CCCN1CCC(NCc2ccc(SC)cc2)C(NC(=O)CNC(=O)c2cc(C(F)(F)F)ccc2N)C1 (racemic)", 1],
  ["CCCN1CCC(NCc2ccc(SC)cc2)C(NC(=O)CNC(=O)c2cc(C(F)(F)F)ccc2NC(=O)NC)C1 (racemic)", 1],
  ["CSc1ccc(C(=O)NC2CCNCC2NC(=O)CNC(=O)c2cc(C(F)(F)F)ccc2N)cc1 (racemic)", -1],
  ["CSc1ccc(CNC2CCNCC2NC(=O)CNC(=O)c2cccc(C(F)(F)F)c2)cc1 (racemic)", -1],
  ["CCCCN1CCC(NC(=O)c2ccc(SC)cc2)C(NC(=O)CNC(=O)c2cc(C(F)(F)F)ccc2N)C1 (racemic)", -1]
]}

====

- tested.target: C-C chemokine receptor type 2 (Homo sapiens, UniProt P41597)
- assay.details: Displacement of radiolabeled MCP1 from CCR2 in human PBMC by millipore filter plate assay
pIC50: −log10 of the molar value.

{"columns": ["compound", "pIC50"],
 "data": [
  ["CCCN1CCC(NCc2ccc(SC)cc2)C(NC(=O)CNC(=O)c2cc(C(F)(F)F)ccc2NC(=O)NC)C1 (racemic)", 8.42],
  ["CCSc1ccc(CNC2CCNCC2NC(=O)CNC(=O)c2cc(C(F)(F)F)ccc2N)cc1 (racemic)", 6.91],
  ["CSc1ccc(CNC2CCNCC2NC(=O)CNC(=O)c2cccc(C(F)(F)F)c2)cc1 (racemic)", 7.01],
  ["CCCN1CCC(NCc2ccc(SC)cc2)C(NC(=O)CNC(=O)c2cc(N)cc(C(F)(F)F)c2)C1 (racemic)", 8.21],
  ["CSc1ccc(C(=O)NC2CCN(C)CC2NC(=O)CNC(=O)c2cc(C(F)(F)F)ccc2N)cc1 (racemic)", 8.74],
  ["CSc1ccc(CNC2CCN(C)CC2NC(=O)CNC(=O)c2cc(C(F)(F)F)ccc2N)cc1 (racemic)", 9.02],
  ["CSc1ccc(CNC2CCNCC2NC(=O)CNC(=O)c2cc(C(F)(F)F)ccc2N)cc1 (racemic)", 8.20],
  ["CSc1ccc(CNC2CCN(C(C)=O)CC2NC(=O)CNC(=O)c2cccc(C(F)(F)F)c2)cc1 (racemic)", 6.33]
]}

====

- tested.target: C-C chemokine receptor type 2 (Homo sapiens)
- assay.details: Binding affinity to wild type CCR2
Catalogue of compounds with associated IC50

{"columns": ["compound", "unit.annotation", "IC50"],
 "data": [
  ["CSc1ccc(CNC2CCNCC2NC(=O)CNC(=O)c2cc(C(F)(F)F)ccc2N)cc1 (racemic)", "nM", 6.1],
  ["CSc1ccc(C(=O)NC2CCNCC2NC(=O)CNC(=O)c2cc(C(F)(F)F)ccc2N)cc1 (racemic)", "nM", 12]
]}

====

Catalogue of compounds with associated inhibition
- tested.target: C-C chemokine receptor type 3 (Homo sapiens) (UniProt P51677)
- Sequence (whole entry): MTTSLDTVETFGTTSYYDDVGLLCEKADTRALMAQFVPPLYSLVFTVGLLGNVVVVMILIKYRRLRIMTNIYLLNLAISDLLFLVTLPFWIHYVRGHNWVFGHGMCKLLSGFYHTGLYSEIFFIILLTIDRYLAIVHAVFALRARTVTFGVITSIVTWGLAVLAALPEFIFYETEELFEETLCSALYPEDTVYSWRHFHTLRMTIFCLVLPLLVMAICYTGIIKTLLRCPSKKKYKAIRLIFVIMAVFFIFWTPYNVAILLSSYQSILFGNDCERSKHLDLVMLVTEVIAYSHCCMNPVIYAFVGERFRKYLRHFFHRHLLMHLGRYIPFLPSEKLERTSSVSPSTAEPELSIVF
- assay.details: Inhibition of CCR3 at 10 uM

{"columns": ["compound", "inhibition"],
 "data": [
  ["CCCN1CCC(NCc2ccc(SC)cc2)C(NC(=O)CNC(=O)c2cc(N)cc(C(F)(F)F)c2)C1 (racemic)", "49.3%"],
  ["CCCN1CCC(NCc2ccc(SC)cc2)C(NC(=O)CNC(=O)c2cc(C(F)(F)F)ccc2NC(=O)N2CCCC2)C1 (racemic)", "38.2%"],
  ["CSc1ccc(C(=O)NC2CCNCC2NC(=O)CNC(=O)c2cc(C(F)(F)F)ccc2N)cc1 (racemic)", "19.7%"],
  ["CSc1ccc(C(=O)NC2CCN(C)CC2NC(=O)CNC(=O)c2cc(C(F)(F)F)ccc2N)cc1 (racemic)", "43.1%"]
]}

====

- tested.target: C-C chemokine receptor type 2 (Homo sapiens, UniProt P41597)
- assay.details: Displacement of radiolabeled MCP1 from CCR2 in human PBMC by millipore filter plate assay
pIC50: −log10 of the molar value.
# cutoff 8 applies to pIC50; >= gives met, < gives not met

{"columns": ["compound", "class.label"],
 "data": [
  ["CCCCN1CCC(NC(=O)c2ccc(SC)cc2)C(NC(=O)CNC(=O)c2cc(C(F)(F)F)ccc2N)C1 (racemic)", "met"],
  ["CSc1ccc(C(=O)NC2CCNCC2NC(=O)CNC(=O)c2cc(C(F)(F)F)ccc2N)cc1 (racemic)", "not met"],
  ["CSc1ccc(CNC2CCCCC2NC(=O)CNC(=O)c2cc(C(F)(F)F)ccc2N)cc1 (racemic)", "not met"],
  ["Nc1ccc(C(F)(F)F)cc1C(=O)NCC(=O)NC1CNCCC1NCc1ccc(Cl)cc1 (racemic)", "not met"],
  ["CCCN1CCC(NCc2ccc(SC)cc2)C(NC(=O)CNC(=O)c2cc(C(F)(F)F)ccc2N)C1 (racemic)", "met"]
]}
